# target: T1, Human c-Met-Flis-Fc ECD (human)
# T1 construct: also called human c-Met extracellular domain (ECD)-Fc-Flis fusion; Human cMet-ECD-Fc-Flis
# T1 sequence (chain, as listed by the source limits assumed): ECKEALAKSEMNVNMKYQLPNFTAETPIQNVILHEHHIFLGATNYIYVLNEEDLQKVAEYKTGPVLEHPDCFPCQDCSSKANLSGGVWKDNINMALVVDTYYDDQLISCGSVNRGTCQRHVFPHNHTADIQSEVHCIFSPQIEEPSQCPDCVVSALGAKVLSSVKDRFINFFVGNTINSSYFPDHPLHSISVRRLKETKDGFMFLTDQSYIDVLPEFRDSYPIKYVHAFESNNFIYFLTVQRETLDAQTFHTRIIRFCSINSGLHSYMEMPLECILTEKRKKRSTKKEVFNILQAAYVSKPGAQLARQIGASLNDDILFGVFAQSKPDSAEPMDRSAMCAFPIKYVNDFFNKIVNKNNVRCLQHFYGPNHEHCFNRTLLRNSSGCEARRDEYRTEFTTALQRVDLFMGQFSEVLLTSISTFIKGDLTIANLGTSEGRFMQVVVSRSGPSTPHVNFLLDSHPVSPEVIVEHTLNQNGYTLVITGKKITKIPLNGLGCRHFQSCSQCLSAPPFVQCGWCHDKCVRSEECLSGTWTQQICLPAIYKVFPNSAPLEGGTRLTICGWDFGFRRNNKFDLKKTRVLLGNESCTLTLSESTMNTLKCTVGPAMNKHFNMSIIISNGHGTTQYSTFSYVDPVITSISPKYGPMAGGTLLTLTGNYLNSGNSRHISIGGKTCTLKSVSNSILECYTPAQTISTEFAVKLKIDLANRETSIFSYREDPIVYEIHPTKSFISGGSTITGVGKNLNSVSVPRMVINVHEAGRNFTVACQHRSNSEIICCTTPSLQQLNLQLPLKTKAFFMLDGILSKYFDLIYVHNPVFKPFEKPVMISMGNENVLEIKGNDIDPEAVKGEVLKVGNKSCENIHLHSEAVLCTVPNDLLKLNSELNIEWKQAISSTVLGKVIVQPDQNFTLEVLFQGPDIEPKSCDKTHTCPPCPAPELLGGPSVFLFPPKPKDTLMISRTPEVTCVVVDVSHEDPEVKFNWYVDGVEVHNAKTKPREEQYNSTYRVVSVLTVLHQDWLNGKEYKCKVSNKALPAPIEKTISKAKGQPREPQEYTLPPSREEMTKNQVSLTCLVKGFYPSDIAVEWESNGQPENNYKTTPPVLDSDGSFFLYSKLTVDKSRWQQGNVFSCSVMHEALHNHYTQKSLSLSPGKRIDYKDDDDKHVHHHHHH
# protocol: SPR Biacore, antibody captured, ECD-Fc analyte, 1:1 model
# Kd per entry

# binder, displayUnit, censoringOperator, Kd
data = [
    ("C8-H241 (antibody, human IgG2, kappa, V domains shown, Called IgG4, kappa; also called Mab C8-H241) VH: QVQLVQSGAEVKKPGASVKVSCKASGYTFTDYYMHWVRQAPGQGLEWMGRVNPNRRGTTYNQKFEGRVTMTTDTSTSTAYMELRSLRSDDTAVYYCARANWLDYWGQGTTVTVSS VL: DIQMTQSPSSLSASVGDRVTITCSVSSSVSSIYLHWYQQKPGKAPKLLIYSTSNLASGVPSRFSGSGSGTDFTLTISSLQPEDFATYYCQVYSGYPLTFGGGTKVEIKR", "nM", "<", 0.1),
    ("D11-C27G3 (antibody, human IgG2, kappa, V domains shown, Human engineered IgG2, kappa; also called D11-27G3) VH: QVQLVQSGAEVKKPGSSVKVSCKASGYTFTSRYIHWVRQAPGQGLEWMGWIYPVTGDTYYREPFKGRVTITADKSTSTAYMELSSLRSEDTAVYYCARGYGAFYYWGQGTLVTVSS VL: EIVLTQSPGTLSLSPGERATLSCSVSSSISSTNLHWYQQKPGQAPRLLIYGTSRLRSGIPDRFSGSGSGTDFTLTISRLEPEDFAVYYCQQWSSYPYSFGQGTKLEIKR", "nM", "=", 1.4),
    ("D11-8B8 (antibody, human IgG2, kappa, V domains shown, Human engineered IgG2, kappa; expressed in HEK293 EBNA cells; also called Mab D11-8B8) VH: QVQLVQSGAEVKKPGSSVKVSCKASGYTFTSRYIHWVRQAPGQGLEWMGWIYPVTGDTYYIEKFKGRVTITADKSTSTAYMELSSLRSEDTAVYYCARGYGAFFYWGQGTLVTVSS VL: EIVLTQSPGTLSLSPGERATLSCSVSSSISSTNLHWYQQKPGQAPRLLIYGTSYLASGIPDRFSGSGSGTDFTLTISRLEPEDFAVYYCQQWSSYPYSFGQGTKLEIKR", "nM", "=", 0.5),
    ("C8-co-16 (antibody, human IgG2, kappa, V domains shown, Called IgG4, kappa) VH: QVQLVQSGAEVKKPGASVKVSCKASGYTFTDYYMHWVRQAPGQGLEWMGRVNPYRGSTTYNQKFEGRVTMTTDTSTSTAYMELRSLRSDDTAVYYCARANILDYWGQGTTVTVSS VL: DIQMTQSPSSLSASVGDRVTITCSVSSSVRSIYLHWYQQKPGKAPKLLIYSTSNLASGVPSRFSGSGSGTDFTLTISSLQPEDFATYYCQVYRGYPLTFGGGTKVEIKR", "nM", "=", 0.3),
    ("C8-6 (antibody, human IgG2, kappa, V domains shown, Called IgG4, kappa; also called Mab C8-6) VH: QVQLVQSGAEVKKPGASVKVSCKASGYTFTDYYMHWVRQAPGQGLEWMGRVNPNRGGTTYNQKFEGRVTMTTDTSTSTAYMELRSLRSDDTAVYYCARTNWLDYWGQGTTVTVSS VL: DIQMTQSPSSLSASVGDRVTITCSVSSSVSSIYLHWYQQKPGKAPKLLIYSTSNLASGVPSRFSGSGSGTDFTLTISSLQPEDFATYYCIQYSGYPLTFGGGTKVEIKR", "nM", "=", 4),
    ("D11-S17Y (antibody, human IgG2, kappa, V domains shown, Human engineered IgG2, kappa) VH: QVQLVQSGAEVKKPGSSVKVSCKASGYTFTSRYIHWVRQAPGQGLEWMGWIYPVTGDTYYNEKFKGRVTITADKSTSTAYMELSSLRSEDTAVYYCARGYGAFYYWGQGTLVTVSS VL: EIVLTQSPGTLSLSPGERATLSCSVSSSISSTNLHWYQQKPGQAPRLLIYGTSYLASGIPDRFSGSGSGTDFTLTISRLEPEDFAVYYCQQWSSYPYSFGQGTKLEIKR", "nM", "=", 4.2),
]

The origin of these recorded values is patent US20100129369A1.
